Molecular target: EGFR (Homo sapiens, UniProt P00533)
Construct: Kinases are expressed as either kinase domains or full length constructs; made in house
Sequence (P00533 25-1210, species assumed): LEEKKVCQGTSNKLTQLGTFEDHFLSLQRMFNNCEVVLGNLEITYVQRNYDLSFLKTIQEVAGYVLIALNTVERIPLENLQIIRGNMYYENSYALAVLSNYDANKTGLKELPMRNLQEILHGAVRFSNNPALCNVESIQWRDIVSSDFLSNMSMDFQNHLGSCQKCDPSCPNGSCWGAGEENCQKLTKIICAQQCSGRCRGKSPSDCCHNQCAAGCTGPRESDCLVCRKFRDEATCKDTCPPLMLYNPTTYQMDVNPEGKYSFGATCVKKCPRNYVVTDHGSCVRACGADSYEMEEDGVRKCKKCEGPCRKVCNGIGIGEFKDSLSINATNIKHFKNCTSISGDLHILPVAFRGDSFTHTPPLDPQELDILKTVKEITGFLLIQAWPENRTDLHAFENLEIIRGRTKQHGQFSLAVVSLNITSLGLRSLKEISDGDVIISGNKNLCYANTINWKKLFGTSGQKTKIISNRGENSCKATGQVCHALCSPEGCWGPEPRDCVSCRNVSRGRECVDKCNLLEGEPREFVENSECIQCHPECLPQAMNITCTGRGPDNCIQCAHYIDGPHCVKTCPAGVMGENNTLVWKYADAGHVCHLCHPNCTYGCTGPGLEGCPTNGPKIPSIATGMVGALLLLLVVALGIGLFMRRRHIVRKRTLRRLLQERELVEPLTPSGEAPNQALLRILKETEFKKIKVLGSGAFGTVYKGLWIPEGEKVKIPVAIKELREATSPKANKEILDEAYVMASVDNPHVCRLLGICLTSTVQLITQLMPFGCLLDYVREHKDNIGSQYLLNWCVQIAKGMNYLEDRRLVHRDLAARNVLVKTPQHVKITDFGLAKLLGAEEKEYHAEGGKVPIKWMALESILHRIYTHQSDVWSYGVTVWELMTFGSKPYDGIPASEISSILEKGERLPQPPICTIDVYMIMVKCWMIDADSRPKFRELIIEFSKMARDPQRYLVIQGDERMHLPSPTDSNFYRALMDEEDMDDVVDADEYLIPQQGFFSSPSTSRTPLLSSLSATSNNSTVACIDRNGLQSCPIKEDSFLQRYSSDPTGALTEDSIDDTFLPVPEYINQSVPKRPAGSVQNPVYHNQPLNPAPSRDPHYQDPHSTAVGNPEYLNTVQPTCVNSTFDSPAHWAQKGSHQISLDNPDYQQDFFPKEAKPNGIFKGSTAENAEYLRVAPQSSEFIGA
Test: Kinase inhibition assay (33P transfer), EGFR
Assay type: biochemical
Details: Table 2, class symbols A-E; read-out: EGFR-1
Protocol: The inhibitor compounds described herein are screened in the following manner. […] Kinases are expressed as either kinase domains or full length constructs fused to glutathione S-transferase (GST) or polyHistidine tagged fusion proteins in either E. colior Baculovirus-High Five expression systems. […] Kinase activity and inhibition are measured essentially by established protocols (Braunwalder et al., 1996). […]
Metric: IC50

Reported IC50 (EGFR (Homo sapiens, UniProt P00533)) for entry CN(c1cccc(Cl)c1)c1ncnc(Nc2cccc(OC(F)(F)F)c2)n1 [Compound 875] is < 1.01 µM

Reported IC50 (EGFR (Homo sapiens, UniProt P00533)) for entry COc1cc(Nc2ncnc(-c3cccnc3NC3CCN(Cc4ccccc4)CC3)n2)cc(OC)c1OC [Compound 847] is > 8.53 µM

Reported IC50 (EGFR (Homo sapiens, UniProt P00533)) for entry O=C(O)Cc1cccc(Nc2ncnc(Nc3ccc(Cl)cc3F)n2)c1 [Compound 968] is 1.07 to 6.42 µM

Reported IC50 (EGFR (Homo sapiens, UniProt P00533)) for entry COC(=O)c1ccc(-c2cc(Nc3ncnc(NCCCO)n3)[nH]n2)cc1 [Compound 818] is > 12.2 µM

Reported IC50 (EGFR (Homo sapiens, UniProt P00533)) for entry Clc1cccc(Nc2ncnc(Nc3ccc4[nH]ncc4c3)n2)c1 [Compound 134] is < 1.18 µM

For every item below, please supply its IC50.
1. COc1cc(Nc2ncnc(N3CCCc4ccc(Cl)cc43)n2)cc(OC)c1OC [Compound 645]
2. COc1cc(Nc2ncnc(Nc3cc(-c4ccco4)[nH]n3)n2)cc(C(F)(F)F)c1 [Compound 821]
3. Nc1nc2ccccc2n1-c1ncnc(Nc2cccc(Cn3ccnn3)c2)n1 [Compound 960]
4. COc1ccc(CCNc2ncnc(Nc3cc(-c4ccco4)[nH]n3)n2)cc1OC [Compound 823]

1: < 0.935 µM; 2: 0.958 to 5.75 µM; 3: 6.24 to 9.1 µM; 4: > 11 µM

For every item below, please supply its IC50.
1. c1ccc(CNc2nc3ccccc3n2-c2ncnc(Nc3cccc(Cn4ccnn4)c3)n2)cc1 [Compound 965]
2. COc1ccc(Nc2ncnc(NCCc3ccc(Cl)c(Cl)c3)n2)cc1OC [Compound 859]
3. OCc1cccc(Nc2ncnc(-c3cccnc3Nc3ccccc3)n2)c1 [Compound 1115]
4. COc1cc(Nc2ncnc(NC(=O)Cc3ccccc3)n2)cc(OC)c1OC [Compound 679]
5. O=C(O)Cc1cccc(Nc2ncnc(-c3cccnc3NCc3ccc(F)cc3)n2)c1 [Compound 1100]
6. COc1ccc(Nc2ncnc(Nc3ccc4ncsc4c3)n2)cc1OC [Compound 895]
7. COc1cc(Nc2ncnc(-c3cccnc3Nc3cccc(Oc4ccccc4)c3)n2)cc(OC)c1OC [Compound 840]
8. COc1cc(CNc2ncnc(Nc3cc(-c4ccco4)n[nH]3)n2)cc(OC)c1OC [Compound 997]

< 0.843 µM
0.952 to 5.71 µM
1.08 to 6.48 µM
1.01 to 6.07 µM
0.929 to 5.58 µM
1.05 to 6.31 µM
> 8.61 µM
> 10.6 µM

Reported IC50 (EGFR (Homo sapiens, UniProt P00533)) for entry CN(c1cccc(Cl)c1)c1ncnc(Nc2ccc(OCCO)cc2)n1 [Compound 641] is < 1.08 µM
